Data origin, for the record: patent US10562947B2

Target: EphB3(h) (Homo sapiens)
Sequence (P54753 34-998): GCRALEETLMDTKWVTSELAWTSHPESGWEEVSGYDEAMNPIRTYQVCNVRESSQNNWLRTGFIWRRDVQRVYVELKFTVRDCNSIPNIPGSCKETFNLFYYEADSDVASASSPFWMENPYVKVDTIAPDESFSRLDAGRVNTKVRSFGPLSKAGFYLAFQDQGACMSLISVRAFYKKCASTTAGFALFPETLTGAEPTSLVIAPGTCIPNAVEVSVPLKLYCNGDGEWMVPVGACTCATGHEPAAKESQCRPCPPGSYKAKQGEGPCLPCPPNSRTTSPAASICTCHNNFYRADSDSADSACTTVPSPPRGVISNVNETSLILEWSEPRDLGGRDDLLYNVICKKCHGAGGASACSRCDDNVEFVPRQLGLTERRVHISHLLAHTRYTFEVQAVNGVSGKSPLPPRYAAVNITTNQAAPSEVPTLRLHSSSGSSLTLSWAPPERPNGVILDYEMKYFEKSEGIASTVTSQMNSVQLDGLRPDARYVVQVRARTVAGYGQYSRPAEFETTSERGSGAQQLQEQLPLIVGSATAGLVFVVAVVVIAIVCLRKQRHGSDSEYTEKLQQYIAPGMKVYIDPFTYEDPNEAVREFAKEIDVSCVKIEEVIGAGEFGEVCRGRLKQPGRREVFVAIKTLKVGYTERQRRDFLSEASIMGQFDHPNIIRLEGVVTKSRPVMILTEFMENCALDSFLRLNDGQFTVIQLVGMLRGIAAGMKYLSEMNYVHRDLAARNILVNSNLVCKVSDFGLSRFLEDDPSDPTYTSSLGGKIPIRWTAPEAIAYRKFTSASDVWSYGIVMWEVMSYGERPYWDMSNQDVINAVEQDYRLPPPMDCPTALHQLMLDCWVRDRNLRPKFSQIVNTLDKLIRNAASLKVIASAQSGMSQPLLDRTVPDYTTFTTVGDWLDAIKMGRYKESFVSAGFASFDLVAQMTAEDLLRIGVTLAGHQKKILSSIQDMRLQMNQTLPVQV
Assay: Kinase Profiling Assay
Assay type: biochemical
Details: 100 μM peptide
measured-metric: EphB3(h) % activity (%)
Numeric answer only, unit % assumed.

Examples from the recorded data:
- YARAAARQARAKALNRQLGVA (Mammalian) [MMI-0200]: 128
- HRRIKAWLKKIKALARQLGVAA (Mammalian) [MMI-0500]: 79
- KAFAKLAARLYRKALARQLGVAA [MMI-0400]: 47

# returns recorded EphB3(h) % activity (system: EphB3(h) (Homo sapiens)) for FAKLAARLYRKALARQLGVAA [MMI-0300]
62
